- assayInfo: physchem
- Assay type: physicochemical
Marks after values point to notes of the source that are not given here.
resultType: LogP

{"columns": ["compound", "LogP"],
 "data": [
  ["N#Cc1nc(Cl)cc(C(=O)O)c1Oc1cccc(C(F)(F)F)c1", "2.40^[a]"]
]}

Now for another entry.
Problem: Bench note: what LogP did COc1c(Cl)ncc(Oc2cccc(Cl)c2)c1C(=O)NCC(F)(F)c1ccc(C)cc1C show?
Solution: 4.62^[a]

---

- assayInfo: physchem
- Assay type: physicochemical
Marks after values point to notes of the source that are not given here.
# maps each entry to its LogP

# count of solved cases: 3
{"columns": ["compound", "LogP"],
 "data": [
  ["COc1ccc(CCNC(=O)c2cc(Cl)ncc2Oc2cccc(C(F)(F)F)c2)c(OC)c1", "4.06^[a]"],
  ["C=Cc1cc(C(=O)NCC(F)(F)c2ccc(C)cc2C)c(Oc2cccc(C3CC3)c2F)cn1", "5.04^[a]"],
  ["O=C(NCCc1cccc2[nH]ccc12)c1cc(Cl)ncc1Oc1cccc(C(F)(F)F)c1", "3.71^[a]"]
]}

Problem: # lookup: LogP of O=C(NCC(F)c1ccc(Br)cc1Cl)c1cc(Cl)ncc1Oc1cccc(C(F)(F)F)c1 (centres unmarked)
Solution: 4.85^[a]

Problem: What do you have for Cc1cc(Cl)ccc1C(F)CNC(=O)c1cc(Cl)ncc1Oc1cccc(C(F)(F)F)c1 (racemic) ?
Solution: 4.81^[a]

Problem: Subsequent entry: CCc1cc(C(=O)NCC(F)c2ccc(Cl)cc2Cl)c(Oc2cccc(C3CC3)c2)cn1 (racemic)
Solution: 4.92^[a]

Problem: Same question, Cc1ccc(CCNC(=O)c2cc(Cl)ncc2Oc2cnc3ccccc3c2)c(C)c1 this time
Solution: 3.34^[a]

Problem: Repeat with Cc1cc(C(=O)NCC(F)c2ccc(Cl)cc2Cl)c(Oc2cccc(C(F)(F)F)c2)cn1 (centres unmarked)
Solution: 4.18^[a]

---

- assayInfo: physchem
- Assay type: physicochemical
Marks after values point to notes of the source that are not given here.
resultType: LogP

Example entries begin here.
{"columns": ["molecule", "LogP"],
 "data": [
  ["Cc1cccc(Oc2cnc(C)cc2C(=O)NCC(F)c2ccc(Cl)cc2Cl)c1 (racemic)", "4.13^[a]"],
  ["Cc1ccc(CCNC(=O)c2cc(Cl)ncc2Oc2cccc(C(F)F)c2)c(C)c1", "4.30^[a]"],
  ["Cc1ccc(CCNC(=O)c2cc(C)ncc2Oc2cccc(C(F)F)c2)c(C)c1", "3.56^[a]"],
  ["O=C(NCC(F)c1ccc(Cl)cc1Cl)c1cc(Cl)ncc1Oc1cccc(Cl)c1 (racemic)", "4.80^[a]"]
]}

Problem: Please report the recorded LogP for Cc1ccc(CCNC(=O)c2cc(Cl)ncc2Oc2cccc(OC(F)(F)F)c2F)c(C)c1 .
Solution: 4.95^[a]

Problem: Same question for C=Cc1cccc(Oc2cnc(Cl)cc2C(=O)NCC(F)(F)c2ccc(C)cc2C)c1 please.
Solution: 4.96^[a]

Problem: Entry COc1cccc(Oc2cnc(Cl)cc2C(=O)NCC(F)c2ccc(Cl)cc2Cl)c1 (racemic) please
Solution: 4.51^[a]

Problem: Also, CNc1ncc(Oc2cccc(C(F)(F)F)c2)c(C(=O)NCC(F)(F)c2ccc(C)cc2C)c1I please.
Solution: 4.55^[a]

---

- assayInfo: physchem
- Type: physicochemical
Marks after values point to notes of the source that are not given here.
# LogP values compiled below

Use these answered entries as a reference point.
{"columns": ["compoundString", "LogP"],
 "data": [
  ["O=C(O)c1cc(Cl)ncc1Oc1cccc(C(F)F)c1", "2.48^[a]"],
  ["Cc1ccc(C(F)(F)CNC(=O)c2cc(Cl)ncc2Oc2cccc(C3CC3)c2)c(C)c1", "5.17^[a]"],
  ["Cc1ccc(CCNC(=O)c2cc(Cl)ncc2Oc2cccc(C(F)(F)F)c2)c(C)c1", "4.73^[a]"]
]}

Problem: Need LogP, item O=C(NCCc1ccc2[nH]ccc2c1)c1cc(Cl)ncc1Oc1cccc(C(F)(F)F)c1
Solution: 3.71^[a]

---

- assayInfo: physchem
- Assay type: physicochemical
Marks after values point to notes of the source that are not given here.
resultType: LogP

Field: example entries. Status: answers known.
{"columns": ["compound", "readoutValue"],
 "data": [
  ["COc1c(Cl)ncc(Oc2cccc(C(F)(F)F)c2)c1C(=O)NCC(F)(F)c1ccc(C)cc1C", "4.74^[a]"],
  ["O=C(NCCc1ccc2[nH]cnc2c1)c1cc(Cl)ncc1Oc1cccc(C(F)(F)F)c1", "1.82^[a]"],
  ["O=C(NCC(F)c1ccc(Cl)cc1Cl)c1cc(-c2ccncc2Cl)ncc1Oc1cccc(C(F)(F)F)c1 (racemic)", "4.68^[a]"],
  ["O=C(NCCc1cnc(C(F)(F)F)nc1)c1cc(Cl)ncc1Oc1cccc(C(F)(F)F)c1", "3.57^[a]"],
  ["O=C(NCC(F)(F)c1ccc(Br)cc1Cl)c1cc(Cl)ncc1Oc1cccc(C(F)(F)F)c1", "5.00^[a]"],
  ["Cc1ccc(C(F)(F)CNC(=O)c2ccncc2Oc2cccc(C(F)(F)F)c2)c(C)c1", "3.84^[a]"],
  ["O=C(NCCc1ccc(C(F)(F)F)cn1)c1cc(Cl)ncc1Oc1cccc(C(F)(F)F)c1", "3.91^[a]"],
  ["COc1cc(C(=O)NCC(F)(F)c2ccc(C)cc2C)c(Oc2cccc(C(F)(F)F)c2)cn1", "4.77^[a]"]
]}

Problem: Entry Cc1ccc(C(F)(F)CNC(=O)c2c(Oc3cccc(C(F)(F)F)c3)cnc(Cl)c2F)c(C)c1 : reported LogP = ?
Solution: 4.85^[a]

Problem: Here is the next compound: Cc1ccc(CCNC(=O)c2cc(Cl)ncc2Oc2cccc(C=O)c2)c(C)c1
Solution: 3.79^[a]

Problem: Record: COCCOc1cccc(Oc2cnc(Cl)cc2C(=O)NCCc2ccc(C)cc2C)c1
Solution: 4.27^[a]

Problem: Also need O=C(NCC(F)(F)c1ccc(-c2ccncc2Cl)cc1Cl)c1cc(-c2ccncc2Cl)ncc1Oc1cccc(C(F)(F)F)c1 , thanks.
Solution: 4.33^[a]

Problem: Same question, Cc1ccc(C(F)CNC(=O)c2cc(Cl)ncc2Oc2cccc(C(F)(F)F)c2)cc1C (racemic) this time
Solution: 4.70^[a]

Problem: C#Cc1cccc(Oc2cnc(Cl)cc2C(=O)NCCc2ccc(C)cc2C)c1 ?
Solution: 4.45^[a]

Problem: Input Cc1ccc(CCNC(=O)c2cc(Cl)ncc2Oc2ccc(OC(F)(F)F)cc2)c(C)c1
Solution: 4.97^[a]

---

Property: LogP; scope: individual molecules
- assayInfo: physchem
- Format: physicochemical
Marks after values point to notes of the source that are not given here.

See these solved cases before continuing.
{"columns": ["molecule", "LogP"],
 "data": [
  ["Cc1ccc(C(F)(F)CNC(=O)c2cc(C)ncc2Oc2cccc(C(F)F)c2)c(C)c1", "3.73^[a]"],
  ["O=C(NCC(F)(F)c1ccc(-c2ccncc2Cl)cc1Cl)c1cc(Cl)ncc1Oc1cccc(C(F)(F)F)c1", "4.51^[a]"],
  ["Cc1ccc(C(F)(F)CNC(=O)c2cc(C)ncc2Oc2cccc(C3CC3)c2F)c(Cl)c1", "4.47^[a]"],
  ["Cc1ccc(CCNC(=O)c2cc(C)ncc2Oc2cccc(C(F)(F)F)c2)c(C)c1", "4.03^[a]"],
  ["CCc1cccc(Oc2cnc(Cl)cc2C(=O)NCCc2ccc(C)cc2C)c1", "5.23^[a]"],
  ["Cc1ccc(CCNC(=O)c2cc(C(C)O)ncc2Oc2cccc(C(F)(F)F)c2)c(C)c1 (centres unmarked)", "3.67^[a]"],
  ["Cc1ccc(CCNC(=O)c2cc(Cl)ncc2Oc2cccc(Br)c2F)c(C)c1", "4.78^[a]"]
]}

Turning now to a further record.
Problem: Look up LogP: CON(CCc1ccc(Cl)cc1Cl)C(=O)c1cc(Cl)ncc1Oc1cccc(C(F)(F)F)c1
Solution: 5.24^[a]

---

Listing of entries alongside the reported LogP.
- assayInfo: physchem
- Assay type: physicochemical
Marks after values point to notes of the source that are not given here.

Study these solved cases before continuing.
{"columns": ["molecule", "readoutValue"],
 "data": [
  ["Cc1ccc(CCNC(=O)c2cc(Cl)ncc2Oc2ccc(Cl)c(C(F)(F)F)c2)c(C)c1", "5.09^[a]"],
  ["COCCc1ccc(C(F)(F)CNC(=O)c2cc(CCOC)ncc2Oc2cccc(C(F)F)c2)c(Cl)c1", "3.74^[a]"],
  ["O=C(NCCc1cccs1)c1cc(Cl)ncc1Oc1cccc(C(F)(F)F)c1", "3.98^[a]"],
  ["Cc1ccc(C(F)(F)CNC(=O)c2c(Oc3cccc(Cl)c3)cnc(Cl)c2Cl)c(C)c1", "4.85^[a]"],
  ["CCOC(=O)c1ccc(C(F)(F)CNC(=O)c2cc(Cl)ncc2Oc2cccc(C(F)F)c2)c(Cl)c1", "4.47^[a]"]
]}

Problem: Item O=C(O)c1cc(Cl)ncc1Oc1cccc(Cl)c1 has what recorded LogP?
Solution: 2.76^[a]

Problem: Let us now turn to Cc1ccc(CCNC(=O)c2cc(Cl)ncc2Oc2ccc3c(c2)CCC3)c(C)c1
Solution: 5.49^[a]

Problem: Repeat for the following molecule: Cc1ccc(CCNC(=O)c2cc(N3CCCC3)ncc2Oc2cccc(C(F)(F)F)c2)c(C)c1
Solution: 4.26^[a]
